# pIC50 values compiled below
biological target: BRD4-BD1 (Homo sapiens (Human)); assay: BRD4-H4 Tetraacetylated Peptide Inhibition AlphaScreen; settings: GST-BRD4-BD1 (aa 44-168), biotinylated Acetyl-Histone H4 peptide
pIC50: −log10 of the molar value.

>  <Compound>
Cn1nc(-c2nc3ccccc3n2Cc2ccccc2)ccc1=O [Example I-15]

>  <Test Target>
BRD4-BD1 (Homo sapiens (Human))

>  <pIC50>
5.86

$$$$
>  <Compound>
Cc1cc(-c2nc3ccccc3n2Cc2ccccc2)cn(C)c1=O [Example I-13]

>  <Test Target>
BRD4-BD1 (Homo sapiens (Human))

>  <pIC50>
7.17

$$$$
>  <Compound>
Cc1cc(-c2nc3cnc(N)cc3n2Cc2ccccc2)cn(C)c1=O [II-16]

>  <Test Target>
BRD4-BD1 (Homo sapiens (Human))

>  <pIC50>
7.17

$$$$
>  <Compound>
Cc1nc(-c2nc3cnc(N4CCOCC4)cc3n2Cc2ccccc2)cn(C)c1=O [II-12]

>  <Test Target>
BRD4-BD1 (Homo sapiens (Human))

>  <pIC50>
7.31

$$$$
>  <Compound>
Cc1cc(-c2nc3cnc(N4CCN(C)CC4)cc3n2Cc2ccccc2)cn(C)c1=O [II-1]

>  <Test Target>
BRD4-BD1 (Homo sapiens (Human))

>  <pIC50>
7.72

$$$$
>  <Compound>
Cc1cc(-c2nc3cc(N4CCOCC4)cnc3n2Cc2ccccc2)cn(C)c1=O [IV-5]

>  <Test Target>
BRD4-BD1 (Homo sapiens (Human))

>  <pIC50>
7.49

$$$$
>  <Compound>
Cc1cc(-c2nc3ccc(C4(C(F)(F)F)CC4)cc3n2Cc2ccccn2)cn(C)c1=O [Example I-30]

>  <Test Target>
BRD4-BD1 (Homo sapiens (Human))

>  <pIC50>
7.20

$$$$
>  <Compound>
Cn1cc(-c2nc3ccc(N4CCOCC4)cc3n2Cc2ccccc2)ccc1=O [Example I-4]

>  <Test Target>
BRD4-BD1 (Homo sapiens (Human))

>  <pIC50>
6.29

$$$$
>  <Compound>
Cc1cc(-c2nc3ccc(OC4CCN(C)CC4)nc3n2C(C)c2ccccn2)cn(C)c1=O (stereo not drawn) [III-9]

>  <Test Target>
BRD4-BD1 (Homo sapiens (Human))

>  <pIC50>
6.66

$$$$

----------
# pIC50 values compiled below
Target: BRD4-BD1 (Homo sapiens (Human), UniProt O60885)
Assay: BRD4-H4 Tetraacetylated Peptide Inhibition AlphaScreen
Settings: GST-BRD4-BD1 (aa 44-168), biotinylated Acetyl-Histone H4 peptide
Method: Compounds are diluted in serial dilution 1:5 in assay buffer from 10 mM stock in DMSO (100 μM start concentration) in white OptiPlate-384 (PerkinElmer). […] Afterwards, the signal is measured in a PerkinElmer Envision HTS Multilabel Reader using the AlphaScreen protocol from PerkinElmer. […]
pIC50: −log10 of the molar value.
Recorded Metric: pIC50

>  <Molecule>
Cc1cc(-c2nc3cnc(N4CCOCC4)cc3n2[C@@H](C)c2ccccc2)cn(C)c1=O

>  <Test Target>
BRD4-BD1 (Homo sapiens (Human), UniProt O60885)

>  <Endpoint Value>
7.57

$$$$
>  <Molecule>
Cc1cc(-c2nc3cnc(N4CCOCC4)cc3n2[C@H](C)c2ccccc2)cn(C)c1=O

>  <Test Target>
BRD4-BD1 (Homo sapiens (Human), UniProt O60885)

>  <Endpoint Value>
6.63

$$$$
>  <Molecule>
Cc1cc(-c2nc3ccc(C4(C(F)(F)F)CC4)cc3n2[C@@H](C)c2ccccc2)cn(C)c1=O

>  <Test Target>
BRD4-BD1 (Homo sapiens (Human), UniProt O60885)

>  <Endpoint Value>
6.99

$$$$
>  <Molecule>
CNc1cc(-c2nc3ccccc3n2Cc2ccccc2)cn(C)c1=O

>  <Test Target>
BRD4-BD1 (Homo sapiens (Human), UniProt O60885)

>  <Endpoint Value>
6.87

$$$$
>  <Molecule>
Cc1cc(-c2nc3cnc(OCC4CC4)cc3n2C(C)c2ccccn2)cn(C)c1=O (racemic)

>  <Test Target>
BRD4-BD1 (Homo sapiens (Human), UniProt O60885)

>  <Endpoint Value>
7.38

$$$$
>  <Molecule>
Cc1cc(-c2nc3cnc(C4CCOCC4)cc3n2[C@H](C)c2ccccc2)cn(C)c1=O

>  <Test Target>
BRD4-BD1 (Homo sapiens (Human), UniProt O60885)

>  <Endpoint Value>
7.02

$$$$
>  <Molecule>
Cc1cc(-c2nc3cnc(C4=CCOCC4)cc3n2C(C)c2ccccn2)cn(C)c1=O (centres unmarked)

>  <Test Target>
BRD4-BD1 (Homo sapiens (Human), UniProt O60885)

>  <Endpoint Value>
6.68

$$$$
>  <Molecule>
Cc1cc(-c2nc3ccc(OC(C)C)nc3n2[C@@H](C)c2ccccc2)nn(C)c1=O

>  <Test Target>
BRD4-BD1 (Homo sapiens (Human), UniProt O60885)

>  <Endpoint Value>
6.93

$$$$

----------
target: BRD4-BD1 (Homo sapiens (Human), UniProt O60885); assay: BRD4-H4 Tetraacetylated Peptide Inhibition AlphaScreen; conditions: GST-BRD4-BD1 (aa 44-168), biotinylated Acetyl-Histone H4 peptide
pIC50: −log10 of the molar value.

>  <Smiles Representation>
Cc1cnc2c(c1)nc(-c1cc(C)c(=O)n(C)c1)n2Cc1ccccc1

>  <pIC50>
7.15

$$$$
>  <Smiles Representation>
CN1CCN(c2ccc3nc(-c4cn(C)c(=O)cn4)n(Cc4ccccc4)c3c2)CC1

>  <pIC50>
6.92

$$$$
>  <Smiles Representation>
CCn1cc(-c2nc3ccc(N4CCN(C)CC4)cc3n2Cc2ccccc2)cc(C)c1=O

>  <pIC50>
7.31

$$$$
>  <Smiles Representation>
COC[C@H](C)n1c(-c2cc(C)c(=O)n(C)c2)nc2ccc(C(C)C)cc21

>  <pIC50>
6.76

$$$$

----------
molecular target: BRD4-BD1 (Homo sapiens (Human)); experiment: BRD4-H4 Tetraacetylated Peptide Inhibition AlphaScreen; conditions: GST-BRD4-BD1 (aa 44-168), biotinylated Acetyl-Histone H4 peptide
pIC50: −log10 of the molar value.
Recorded Metric: pIC50

>  <Compound>
Cc1cc(-c2nc3cnc(-n4ccnc4)cc3n2Cc2ccccc2)cn(C)c1=O [II-13]

>  <Test Target>
BRD4-BD1 (Homo sapiens (Human))

>  <Endpoint Value>
6.99

$$$$
>  <Compound>
Cn1cc(-c2nc3ccc(N4CCOCC4)cc3n2Cc2ccccc2)cc(N)c1=O [Example V-4]

>  <Test Target>
BRD4-BD1 (Homo sapiens (Human))

>  <Endpoint Value>
6.88

$$$$
>  <Compound>
CN1CCN(c2ccc3nc(-c4cc(N)c(=O)n(C)c4)n(Cc4ccccc4)c3c2)CC1 [Example V-3]

>  <Test Target>
BRD4-BD1 (Homo sapiens (Human))

>  <Endpoint Value>
7.14

$$$$
>  <Compound>
COC[C@H](C)n1c(-c2cc(C)c(=O)n(C)c2)nc2cnc(N3CCOC[C@@H]3C)cc21 [II-11]

>  <Test Target>
BRD4-BD1 (Homo sapiens (Human))

>  <Endpoint Value>
6.99

$$$$

----------
biological target: BRD4-BD1 (Homo sapiens (Human)); experiment: BRD4-H4 Tetraacetylated Peptide Inhibition AlphaScreen; settings: GST-BRD4-BD1 (aa 44-168), biotinylated Acetyl-Histone H4 peptide
Please respond with true (1) when measured IC50 is strictly beneath 50 nM, and with false (0) in all other cases.

>  <Compound>
Cc1cc(-c2nc3ccc(C4CCN(C)C(=O)C4)cc3n2[C@@H](C)c2ccccc2)cn(C)c1=O (some centres unmarked)

>  <Label Class>
true (1)

$$$$
>  <Compound>
COC[C@H](C)n1c(-c2cc(C)c(=O)n(C)n2)nc2ccc(N3CCOC[C@@H]3C)cc21

>  <Label Class>
false (0)

$$$$
>  <Compound>
Cn1cc(-c2nc3cnc(N4CCOCC4)cc3n2Cc2ccccc2)cc(Cl)c1=O

>  <Label Class>
false (0)

$$$$
>  <Compound>
CCn1cc(-c2nc3cnc(N4CCN(C)CC4)cc3n2Cc2ccccc2)cc(C)c1=O

>  <Label Class>
false (0)

$$$$
>  <Compound>
Cc1cc(-c2nc3ccc(C(=O)N(C)C)cc3n2Cc2ccccc2)cn(C)c1=O

>  <Label Class>
false (0)

$$$$
>  <Compound>
Cc1cc(-c2nc3cnc(N4CCOCC4)cc3n2Cc2ccccn2)cn(C)c1=O

>  <Label Class>
false (0)

$$$$
>  <Compound>
Cc1cc(-c2nc3ccncc3n2Cc2ccccc2)cn(C)c1=O

>  <Label Class>
false (0)

$$$$
>  <Compound>
Cc1cc(-c2nc3cnc(C(C)C)cc3n2[C@@H](C)c2ccccc2)cn(C)c1=O

>  <Label Class>
true (1)

$$$$
>  <Compound>
Cc1cc(-c2nc3cnc(Cl)cc3n2Cc2ccccc2)cn(C)c1=O

>  <Label Class>
false (0)

$$$$
>  <Compound>
Cc1cc(-c2nc3cnc(N4CCOC[C@@H]4C)cc3n2[C@@H](C)c2ccccc2)cn(C)c1=O

>  <Label Class>
true (1)

$$$$
